- Tested on: T24 bladder cell carcinoma
- Experimental details: Relative colony forming efficiency (Example 17, Table 13)
- Assay type: cell-based, human
- Study conditions: averages of 2-8 determinations
Oligonucleotides are written 5' to 3', each unit as a sugar letter and its base; * is a phosphorothioate linkage, no mark a phosphodiester; rarer units and linkages stand in square brackets, end groups in braces. Plain capitals give the bases only. d = 2'-deoxy (DNA)
Metric: Reduced relative colony forming efficiency, T24 (% inhibition of colony forming ability) (%)
Give just the number in %; leave the unit off.

Known results for sequences:
[
  {
    "Seq string": "CCTCCTCGGCGGTCCAAAAG (antisense dC*dC*dT*dC*dC*dT*dC*dG*dG*dC*dG*dG*dT*dC*dC*dA*dA*dA*dA*dG) [AS-II-494-20]",
    "Measured value": 54.23
  },
  {
    "Seq string": "CGCGCTCCCGGCCC (antisense dC*dG*dC*dG*dC*dT*dC*dC*dC*dG*dG*dC*dC*dC) [AS-II-79-14]",
    "Measured value": 38.4
  },
  {
    "Seq string": "TTCATGGTGTGGCTAGTTGG (antisense dT*dT*dC*dA*dT*dG*dG*dT*dG*dT*dG*dG*dC*dT*dA*dG*dT*dT*dG*dG) [AS-II-1438-20]",
    "Measured value": 43.7
  },
  {
    "Seq string": "TGCCTCCGACCCTTCCCATT (antisense dT*dG*dC*dC*dT*dC*dC*dG*dA*dC*dC*dC*dT*dT*dC*dC*dC*dA*dT*dT) [AS-II-14-20]",
    "Measured value": 77.59
  },
  {
    "Seq string": "AAAAATCAGCCAAGTAAGGG (antisense dA*dA*dA*dA*dA*dT*dC*dA*dG*dC*dC*dA*dA*dG*dT*dA*dA*dG*dG*dG) [AS-II-1381-20]",
    "Measured value": 71.37
  }
]

Ask | Query Reduced relative colony forming efficiency, T24 (% inhibition of colony forming ability) for TCCTCGGCGGTCCAAA (antisense dT*dC*dC*dT*dC*dG*dG*dC*dG*dG*dT*dC*dC*dA*dA*dA) [AS-II-496-16]
Reply | 78.48

Ask | Query Reduced relative colony forming efficiency, T24 (% inhibition of colony forming ability) for AAAACCTTGCTAAAACCCAG (antisense dA*dA*dA*dA*dC*dC*dT*dT*dG*dC*dT*dA*dA*dA*dA*dC*dC*dC*dA*dG) [AS-II-1197-20]
Reply | 90.3

Ask | Query Reduced relative colony forming efficiency, T24 (% inhibition of colony forming ability) for TATCGCCGCCGTGAGTACAA (antisense dT*dA*dT*dC*dG*dC*dC*dG*dC*dC*dG*dT*dG*dA*dG*dT*dA*dC*dA*dA) [AS-II-1768-20]
Reply | 74.56

Ask | Query Reduced relative colony forming efficiency, T24 (% inhibition of colony forming ability) for CCTTGCCCTGAGAGATTCCT (antisense dC*dC*dT*dT*dG*dC*dC*dC*dT*dG*dA*dG*dA*dG*dA*dT*dT*dC*dC*dT) [AS-II-2083-20]
Reply | 82.43

Ask | Query Reduced relative colony forming efficiency, T24 (% inhibition of colony forming ability) for ACTGCCATTGTCACTGCTAT (antisense dA*dC*dT*dG*dC*dC*dA*dT*dT*dG*dT*dC*dA*dC*dT*dG*dC*dT*dA*dT) [AS-II-1581-20]
Reply | 68.22

Ask | Query Reduced relative colony forming efficiency, T24 (% inhibition of colony forming ability) for GAAGCCATAGAAACAGCGGG (antisense dG*dA*dA*dG*dC*dC*dA*dT*dA*dG*dA*dA*dA*dC*dA*dG*dC*dG*dG*dG) [AS-II-667-20]
Reply | 70.48

Ask | Query Reduced relative colony forming efficiency, T24 (% inhibition of colony forming ability) for ATGGAAAAAAAAAATCAGCC (antisense dA*dT*dG*dG*dA*dA*dA*dA*dA*dA*dA*dA*dA*dA*dT*dC*dA*dG*dC*dC) [AS-II-1390-20]
Reply | 61.13

These entries and their values trace back to patent US20080311126A1.
